assay: Cell viability (MTT assay) in BV2 cells; type: cell-based; settings: mouse, BV2 microglial cells, 50 µM, mean ± SEM (n = 5)
Just a reminder that ties go to Not fulfilled: only viability at 24 h, 50 µM strictly below 80% counts as Fulfilled.

Determine whether this molecule shows viability at 24 h, 50 µM lower than 80% (ties excluded): CC(C)C1=CC(=O)C2=C(C1=O)C(O)CC1C2(C)CC(O)C(O)C1(C)C (stereo not shown) [Compound 1, Medusanthol A]
Fulfilled

Determine whether this molecule shows viability at 24 h, 50 µM lower than 80% (ties excluded): CC(=O)OC1CC(C)(C)C2CCc3cc(C(C)C)c(O)cc3C2(C(=O)O)C1 (stereo not shown) [Compound 5, Medusanthol D]
Not fulfilled

Determine whether this molecule shows viability at 24 h, 50 µM lower than 80% (ties excluded): CC(C)c1cc2c(cc1O)C1(C)CC(O)C(O)C(C)(C)C1CC2 (stereo not shown) [Compound 3, Medusanthol C]
Fulfilled

Determine whether this molecule shows viability at 24 h, 50 µM lower than 80% (ties excluded): CC(C)c1cc2c(cc1O)[C@@]1(C)C[C@@H](O)CC(C)(C)[C@@H]1CC2=O [Compound 6, 2α-hydroxysugiol]
Fulfilled

Determine whether this molecule shows viability at 24 h, 50 µM lower than 80% (ties excluded): CC(C)c1cc2c(cc1O)[C@@]1(C)C[C@@H](O)CC(C)(C)[C@@H]1CC2 [Compound 4, salviol]
Fulfilled

Determine whether this molecule shows viability at 24 h, 50 µM lower than 80% (ties excluded): CC(C)c1cc2c(cc1O)C1(C)CC(O)C(O)C(C)(C)C1CC2=O (stereo not shown) [Compound 2, Medusanthol B]
Fulfilled
